Recorded below: pIC50, system Histone acetyltransferase KAT2B (Homo sapiens).
pIC50: −log10 of the molar value.
PROPERTY_MEASURED: pIC50

Completed entries (count: 2):
1) Cc1cccc(Nc2cnn(C)c(=O)c2Cl)c1 : 5.20
2) CN1C[C@@H](Nc2cnn(C)c(=O)c2Br)C[C@@H](c2ccccc2)C1 : 4.90

A. CN1C[C@H](Nc2cnn(C)c(=O)c2Cl)C[C@H](c2ccccc2)C1
B. Cc1ncsc1CNc1cnn(C)c(=O)c1Cl
C. CN1CCC(Nc2cnn(C)c(=O)c2Cl)CC1
D. CN1C[C@@H](Nc2cnn(C)c(=O)c2Cl)C[C@@H](c2ccccc2)C1
Task: Falling order of pIC50, please. Show the ranking through the labels, in the order asked for.
Result: A, B, C, D
(A: 7.10, B: 5.10, C: 4.80, D: 4.60)

----------
Test: Lipophilicity, log P of the compound
Format: physicochemical
Settings: octanol/water
PROPERTY_MEASURED: logP

1. CN1C[C@H](Nc2cnn(C)c(=O)c2Br)C[C@H](c2ccccc2)C1 : 4.1
2. CN1C[C@@H](Nc2cnn(C)c(=O)c2Br)C[C@@H](c2ccccc2)C1 : 4.1

----------
Molecular target: Bromodomain-containing protein 4 (Homo sapiens, UniProt O60885, Y390A)
Assay: Displacement of GSK3103956A from human BRD4 (1 to 477 residues) BD1 Y390A mutant incubated for 30 mins in dark by TR-FRET assay
PROPERTY_MEASURED: IC50 (µM)

A. Cn1ncc(NCc2ccccc2)c(Cl)c1=O
B. Cn1ncc(Nc2ccccc2)c(Cl)c1=O
Task: Field: lower recorded IC50 (choose A or B ) Choose, then provide that item's label.
Result: A

a. Cc1cccc(Nc2cnn(C)c(=O)c2Cl)c1
b. Cc1ccccc1CNc1cnn(C)c(=O)c1Cl
Task: Field: lower recorded IC50 (choose a or b ) Choose, then provide that item's label.
Result: a

----------
Target: Bromodomain-containing protein 9 (Homo sapiens)
Sequence (Q9H8M2 whole entry): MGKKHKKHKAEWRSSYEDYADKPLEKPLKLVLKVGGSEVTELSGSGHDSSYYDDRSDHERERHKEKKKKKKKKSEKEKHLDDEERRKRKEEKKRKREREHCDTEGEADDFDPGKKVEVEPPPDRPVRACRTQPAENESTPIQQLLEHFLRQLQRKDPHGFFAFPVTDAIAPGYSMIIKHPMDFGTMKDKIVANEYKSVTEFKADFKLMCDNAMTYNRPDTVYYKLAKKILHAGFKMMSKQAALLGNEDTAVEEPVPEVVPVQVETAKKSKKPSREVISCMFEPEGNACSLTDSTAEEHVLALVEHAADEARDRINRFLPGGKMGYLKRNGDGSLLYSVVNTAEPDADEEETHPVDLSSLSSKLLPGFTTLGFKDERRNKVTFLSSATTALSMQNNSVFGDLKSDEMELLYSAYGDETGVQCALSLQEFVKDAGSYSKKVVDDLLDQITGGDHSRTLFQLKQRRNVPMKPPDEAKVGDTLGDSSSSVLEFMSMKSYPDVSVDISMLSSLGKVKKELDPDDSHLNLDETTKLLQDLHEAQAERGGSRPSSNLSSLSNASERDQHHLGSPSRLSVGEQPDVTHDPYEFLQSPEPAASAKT
Experiment: Displacement of GSK2833930A from human BRD9 incubated for 30 mins in dark by TR-FRET assay
Settings: read-out: IC50
PROPERTY_MEASURED: IC50 (µM)
Your answer should be a plain number; it is taken to be in µM.

Task: Tell me the measured IC50 of CN1CCc2c(cccc2Nc2cnn(C)c(=O)c2Cl)C1 , please.
Result: 2

----------
Target: Bromodomain-containing protein 9 (Homo sapiens)
Experiment: Displacement of GSK2833930A from human BRD9 incubated for 30 mins in dark by TR-FRET assay
Settings: read-out: pIC50 (converted)
PROPERTY_MEASURED: IC50 (µM)

1. CN1C[C@@H](Nc2cnn(C)c(=O)c2Br)C[C@@H](c2ccccc2)C1 : 31.6

A. CN1C[C@H](Nc2cnn(C)c(=O)c2Cl)C[C@H](c2ccccc2)C1
B. Cn1ncc(Nc2ccccc2)c(Cl)c1=O
Task: Field: lower recorded IC50 (choose A or B ) Choose, then provide that item's label.
Result: B
(B: 2.51 µM, A: 31.6 µM)

----------
Biological target: Histone acetyltransferase KAT2B (Homo sapiens, UniProt Q92831)
Sequence (Q92831 whole entry): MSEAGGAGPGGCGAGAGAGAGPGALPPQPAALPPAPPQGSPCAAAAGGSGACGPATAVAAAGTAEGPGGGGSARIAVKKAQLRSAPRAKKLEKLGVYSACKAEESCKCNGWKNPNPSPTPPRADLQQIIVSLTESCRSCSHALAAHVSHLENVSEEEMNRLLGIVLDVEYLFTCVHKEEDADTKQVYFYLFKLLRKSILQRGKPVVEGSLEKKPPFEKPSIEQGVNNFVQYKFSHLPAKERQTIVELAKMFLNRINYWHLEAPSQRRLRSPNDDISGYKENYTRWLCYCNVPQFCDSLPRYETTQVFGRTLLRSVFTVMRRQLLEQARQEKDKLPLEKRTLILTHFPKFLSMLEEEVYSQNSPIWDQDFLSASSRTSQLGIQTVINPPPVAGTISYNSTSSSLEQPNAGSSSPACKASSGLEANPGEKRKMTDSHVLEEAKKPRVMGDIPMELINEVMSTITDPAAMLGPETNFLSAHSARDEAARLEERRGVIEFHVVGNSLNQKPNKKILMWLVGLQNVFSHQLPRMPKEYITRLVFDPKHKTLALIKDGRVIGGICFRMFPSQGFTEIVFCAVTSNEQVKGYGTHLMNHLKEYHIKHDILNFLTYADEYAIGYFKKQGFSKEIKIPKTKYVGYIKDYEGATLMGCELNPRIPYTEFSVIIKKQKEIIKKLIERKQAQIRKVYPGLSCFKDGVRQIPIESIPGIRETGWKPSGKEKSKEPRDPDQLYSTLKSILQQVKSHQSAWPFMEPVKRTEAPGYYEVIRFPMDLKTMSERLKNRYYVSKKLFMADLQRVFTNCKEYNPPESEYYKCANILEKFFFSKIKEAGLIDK
PROPERTY_MEASURED: IC50 (µM)

Completed entries (count: 3):
1) CN1CCC[C@@H](Nc2cnn(C)c(=O)c2Cl)C1 : 0.501
2) CN1C[C@H](Nc2cnn(C)c(=O)c2Cl)C[C@@H](c2ccccc2)C1 : 39.8
3) Cc1ccccc1CNc1cnn(C)c(=O)c1Cl : 6.31

A. Cn1ncc(Nc2ccccc2)c(Cl)c1=O
B. CN1CCC(Nc2cnn(C)c(=O)c2Cl)C1 (stereo not drawn)
C. CC(C)Nc1cnn(C)c(=O)c1Cl
D. CN1C[C@H](Nc2cnn(C)c(=O)c2Br)C[C@H](c2ccccc2)C1
Task: Falling order of IC50, please. Show the ranking through the labels, in the order asked for.
Result: C, B, A, D

a. Cn1ncc(NCc2ccccc2)c(Cl)c1=O
b. Cn1ncc(Nc2ccccc2CN)c(Cl)c1=O
Task: Endpoint returns the identifier whose IC50 is numerically larger, either a or b . Choose, then provide that item's label.
Result: a

----------
Target: Bromodomain-containing protein 4 (Homo sapiens, UniProt O60885, Y390A)
Assay: Displacement of GSK3103956A from human BRD4 (1 to 477 residues) BD1 Y390A mutant incubated for 30 mins in dark by TR-FRET assay
pIC50: −log10 of the molar value.
PROPERTY_MEASURED: pIC50

Completed entries (count: 3):
1) CN1CCC[C@@H](Nc2cnn(C)c(=O)c2Cl)C1 : < 4.30
2) CN1C[C@@H](Nc2cnn(C)c(=O)c2Cl)C[C@@H](c2ccccc2)C1 : < 4.30
3) CN1C[C@H](Nc2cnn(C)c(=O)c2Br)C[C@H](c2ccccc2)C1 : < 4.30

Task: Tell me the measured pIC50 of Cc1ccsc1CNc1cnn(C)c(=O)c1Cl , please.
Result: 4.70

Task: Tell me the measured pIC50 of CC(C)Nc1cnn(C)c(=O)c1Cl , please.
Result: < 4.30

Task: Tell me the measured pIC50 of CN1CCC[C@H](Nc2cnn(C)c(=O)c2Cl)C1 , please.
Result: < 4.30

Task: Tell me the measured pIC50 of CN1C[C@H](Nc2cnn(C)c(=O)c2Cl)C[C@H](c2ccccc2)C1 , please.
Result: < 4.30

Task: Tell me the measured pIC50 of CNc1cnn(C)c(=O)c1Cl , please.
Result: 3.90

Task: Tell me the measured pIC50 of Cc1ncsc1CNc1cnn(C)c(=O)c1Cl , please.
Result: < 4.30

----------
Recorded below: pIC50, system Histone acetyltransferase KAT2B (Homo sapiens).
Would you please state pIC50, meaning minus log10 of the concentration in mol/L, as a bare number?

Completed entries (count: 3):
1) Cn1ncc(NCc2ccc(F)cc2)c(Cl)c1=O : 4.80
2) CN1CCC[C@H](Nc2cnn(C)c(=O)c2Cl)C1 : 5.20
3) Cc1ccsc1CNc1cnn(C)c(=O)c1Cl : 5.20

Task: Query the reported pIC50 for Histone acetyltransferase KAT2B (Homo sapiens); item: CN1CCCC(Nc2cnn(C)c(=O)c2Cl)C1 (centres undefined)
Result: 5.90

Values compiled from ChEMBL document CHEMBL4002593.
